Answer each item with its documented GEO mean difference.
- System tested: T1, canine OX40L, full length membrane form, expressed on HEK293 cells (canine)
- T1 construct: also called OX40L expressing HEK; HEK OX40L cells
- T1 chain: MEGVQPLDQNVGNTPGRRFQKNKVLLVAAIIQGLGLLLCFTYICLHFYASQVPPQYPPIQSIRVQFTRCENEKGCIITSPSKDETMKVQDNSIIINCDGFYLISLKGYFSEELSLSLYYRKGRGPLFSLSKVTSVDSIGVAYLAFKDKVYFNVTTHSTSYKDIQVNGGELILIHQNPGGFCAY
- Experiment description: flow cytometry, OX40L HEK minus WT HEK
Number, no unit, nothing else.

q: Which GEO mean difference value is on record for PMX293 (antibody, V domains shown) VH: EVRLLESGGDLVKPAGSLRLSCAVSGFTFSTYDMSWVRQAPGKGLQWVAYITYDGRTTSYTDTVKGRFTVSRDNAKNMLYLKMNSLRSEDAAVYYCAKAHRGWFFDHWGQGTLVTVSS VL: SYVLTQLPSVSVTLRQTARITCGGDSIGSKNVYWYQQKLGQAPVLIIYDDTSRPSGIPERFSGANSGTTATLTISGALAEDEADYYCQVWDSSTGVFGGGTHLTVL ?
a: 598000

q: Query (binder): PMX059 (antibody, V domains shown, also called PMX59) VH: EVHLVESGGDLVKPEGSLRLSCVVSGFTFSNYVMNWVRQAPGKGLQWVAFISGDGRSTTYTDAVKSRFTISRDNAKNTLYLQMSSLRTEDTAIYFCAKEKYSSGWSFEYWGQGTLVTVSS VL: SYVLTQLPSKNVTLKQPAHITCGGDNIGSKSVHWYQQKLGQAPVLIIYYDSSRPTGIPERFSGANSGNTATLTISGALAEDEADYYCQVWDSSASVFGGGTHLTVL ; field requested: GEO mean difference
a: 3.11e+06

q: Bench note: what GEO mean difference did PMX036 (antibody, V domains shown, also called PMX36) VH: EVQLVESGGDLVKPGGSLRLSCVASGFTFSSYHMSWVRQAPGKGLQWVAYITSGGRTTSYADAVKGRFTISRDNAKNTLYLQMNSLRAEDTAVYYCASDLVLVLGGADYWGQGTLVTVSS VL: SYELTQPPSVNVTLRETAHITCGGDSIGRKYVQWIQQNPGQAPVVIIYKDTNRPTGIPERFSGANSGNTATLTISGALAEDEADYYCQVGDSGTKAVFGGGTHLTVL show?
a: 1.28e+06

q: Using the record for PMX107 (antibody, V domains shown) VH: AVQLVESGGDLVRPGGSLRLSCVASGFTFSSYHMNWVRQAPGKGLQWVAFINSGGSSTTYADVVRGRFTISRDYAKNTLFLQMNSLRAEDTAVYYCAIVSIWTHFDYWGQGTLVTVSS VL: SFVLTQLPSVSVTLRQTARITCGGDIIGSKNVYWYQQRLGQAPVLILYRDTNRPTGIPERFSGASSGNTATLTISGALAEDEADYYCQVWDNSNKAMFGGGTHLTVL , report its GEO mean difference.
a: 55200

q: Any idea what GEO mean difference was measured for PMX057 (antibody, V domains shown, also called PMX57) VH: EVQLVESGGDLVKPEGSLRLSCVVSGFTFNNYGMSWVRQAPGKGLQWVAYISIDGRSTSYTDAVKGRFTISRDNAKNTLYLHINSLRTEDTAVYYCTKLGRGFTFGYWGQGTLVTVSS VL: SYVLTQLPSKNVTLKQPAHITCGGDNIGSKSVHWYQQKLGQAPALIIYYDSSRPTGIPERFSGANSGNTATLTISGALAEDEADYYCQVWDSSVSVFGGGTHLTVL ?
a: 3.29e+06
